TESTED_SYSTEM: Human Factor D (Homo sapiens (Human))
MEASUREMENT_NOTES: Human Factor D Assay
Assay type: biochemical
CONDITION_LABEL: Human Factor D, Table 3; read-out: IC50
pIC50: −log10 of the molar value.
OUTCOME_MEASURE: pIC50

INSERT INTO measurements (compound_structure_string, tested_system, observed_value) VALUES
  ('CC(=O)c1nn(CC(=O)N2[C@H](C(=O)Nc3nc(Br)ccc3C)C[C@@]3(C)C[C@@H]23)c2c(C)cc(-c3cnc(C)nc3)cc12', 'Human Factor D (Homo sapiens (Human))', '> 6.00'),
  ('CC(=O)c1nn(CC(=O)N2[C@H](C)CC[C@H]2C(=O)Nc2nc(Br)ccc2C)c2ccc(-c3cnc(C)nc3)cc12', 'Human Factor D (Homo sapiens (Human))', '> 6.00'),
  ('CC(=O)c1nn(CC(=O)N2C[C@H](F)C[C@H]2C(=O)Nc2cccc(Br)n2)c2ccc(-c3cnc(C(N)=O)nc3)cc12', 'Human Factor D (Homo sapiens (Human))', '> 6.00');

* * *

This section presents molecules with their documented pIC50 values.
TESTED_SYSTEM: Human Factor D (Homo sapiens (Human), UniProt P00746)
Sequence (P00746 26-253): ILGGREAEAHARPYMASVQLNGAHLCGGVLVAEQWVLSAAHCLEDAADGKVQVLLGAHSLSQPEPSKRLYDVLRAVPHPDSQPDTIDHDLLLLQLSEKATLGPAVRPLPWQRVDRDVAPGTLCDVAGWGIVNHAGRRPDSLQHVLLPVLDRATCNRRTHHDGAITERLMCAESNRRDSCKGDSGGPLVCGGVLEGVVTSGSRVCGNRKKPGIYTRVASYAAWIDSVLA
MEASUREMENT_NOTES: Human Factor D Assay
Type: biochemical
CONDITION_LABEL: Human Factor D, Table 3; read-out: IC50
pIC50: −log10 of the molar value.
OUTCOME_MEASURE: pIC50

INSERT INTO assay_data (molecule, observed_value) VALUES
  ('COc1cccc(NC(=O)[C@@H]2C[C@@H](F)CN2C(=O)Cn2nc(C(C)=O)c3cc(-c4cnc(C)nc4)ccc32)n1', '> 6.00'),
  ('CC(=O)c1nn(CC(=O)N2C[C@H](F)C[C@H]2C(=O)Nc2cccc(-c3cc(S(=O)(=O)NC4CC4)ccc3Cl)c2F)c2ccc(-c3cnc(C)nc3)cc12', '> 6.00'),
  ('CC(=O)c1nn(CC(=O)N2C[C@H](F)C[C@H]2C(=O)Nc2cccc(Br)n2)c2ccc(-c3cnc(Cl)nc3)cc12', '< 5.00'),
  ('CCc1ncc(-c2ccc3c(c2)c(C(C)=O)nn3CC(=O)N2C[C@H](F)C[C@H]2C(=O)Nc2cccc(Br)n2)cn1', '> 6.00'),
  ('CC(=O)c1nn(CC(=O)N2C[C@H](F)C[C@H]2C(=O)Nc2cccc(C(C)C)n2)c2ccc(-c3cnc4cc(C)nn4c3)cc12', '> 6.00'),
  ('CC(=O)c1nn(CC(=O)N2[C@H](C(=O)NCC(F)=C(C)C)C[C@@]3(C)C[C@@H]23)c2ccc(-c3cnc(C)nc3)cc12', '> 6.00'),
  ('CC(=O)n1cc(CC(=O)N2C[C@H](F)C[C@H]2C(=O)Nc2cccc(-c3ccccc3Cl)c2F)c2ccc(-c3cnc(C)nc3)cc21', '> 6.00'),
  ('CC(=O)c1nn(CC(=O)N2C[C@H](F)C[C@H]2C(=O)Nc2cnc(C)c(Br)n2)c2ccc(-c3cnc4cc(C5CC5)nn4c3)cc12', '> 6.00'),
  ('CC(=O)c1nn(CC(=O)N2[C@@H]3C[C@@H]3C[C@H]2C(=O)Nc2cccc(OC(F)(F)F)n2)c2ccc(-c3cnc4cc(C)nn4c3)cc12', '> 6.00'),
  ('CC(=O)c1nn(CC(=O)N2CC[C@H]2C(=O)Nc2cccc(C)n2)c2ccc(-c3ccc4c(c3)CCC4)cc12', '< 5.00'),
  ('CC(=O)c1nn(CC(=O)N2C[C@H](F)C[C@H]2C(=O)Nc2cccc(Br)n2)c2ccc(-c3cnc(Oc4ccncc4)nc3)cc12', '> 6.00'),
  ('CC(=O)c1nn(CC(=O)N2CC[C@H]2C(=O)Nc2cccc(C)n2)c2ccc(-c3ccc(F)nc3)cc12', '< 5.00'),
  ('CC(=O)c1nn(CC(=O)N2C[C@H](F)C[C@H]2C(=O)NC2(C#N)CC2)c2ccc(-c3cnc(C)nc3)cc12', '> 6.00'),
  ('CC(=O)c1nn(CC(=O)N2C[C@H](F)C[C@H]2C(=O)Nc2cccc(Br)n2)c2ccc(-c3cnc(F)nc3)cc12', '> 6.00'),
  ('CC(=O)c1nn(CC(=O)N2C[C@H](F)C[C@H]2C(=O)Nc2cccc(OC(F)F)n2)c2ccc(-c3cnc4cc(C)nn4c3)cc12', '> 6.00'),
  ('COC(=O)Cc1cccc(NC(=O)[C@@H]2C[C@@H](F)CN2C(=O)Cn2nc(C(C)=O)c3cc(-c4cnc5cc(C)nn5c4)ccc32)n1', '> 6.00'),
  ('CC(=O)c1nn(CC(=O)N2[C@H](C(=O)Nc3cncc(C(F)(F)F)n3)C[C@@]3(C)C[C@@H]23)c2ccc(-c3cnc(C)nc3)cc12', '> 6.00'),
  ('CC(=O)c1nn(CC(=O)N2C(C(=O)Nc3cccc(Br)n3)C[C@@]3(CN(C)C)C[C@@H]23)c2ccc(-c3cnc(C)nc3)cc12 (stereo in doubt)', '> 6.00'),
  ('CC(=O)c1nn(CC(=O)N2C[C@H]3C[C@H]3[C@H]2C(=O)Nc2nc(Br)ccc2C)c2ccc(-c3cnc(N)nc3)cc12', '> 6.00'),
  ('CC(=O)c1nn(CC(=O)N2CC[C@H]2C(=O)Nc2cccc(C)n2)c2ccc(-c3cnc4n3CCCC4)cc12', '< 5.00'),
  ('Cc1cccc(NC(=O)[C@@H]2C[C@@H](F)CN2C(=O)Cn2nc(C(N)=O)c3sc(-c4cnc5cc(C)nn5c4)nc32)n1', '< 5.00'),
  ('CC(=O)c1nn(CC(=O)N2[C@@H]3C[C@@H]3C[C@H]2C(=O)Nc2cncc(Br)n2)c2ccc(-c3cnc4ccnn4c3)cc12', '> 6.00'),
  ('CC(=O)c1cn(CCN2C[C@H](F)C[C@H]2C(=O)Nc2cccc(OC(F)(F)F)c2F)c2ccc(-c3cnc4cc(C)nn4c3)cc12', '< 5.00'),
  ('COC(=O)c1ccc(Br)nc1NC(=O)[C@@H]1C[C@@H](F)CN1C(=O)Cn1nc(C(C)=O)c2cc(-c3cnc(C)nc3)ccc21', '> 6.00'),
  ('CC(=O)c1nn(CC(=O)N2C[C@H](F)C[C@H]2C(=O)Nc2cccc(Br)n2)c2ccc(-c3cnn(-c4ncc(F)cn4)c3)cc12', '> 6.00');
